- Tested on: AncSZ;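 further: 11-residue human phosphosite peptides and single-mutation variants displayed on the E. coli surface, counted by deep sequencing, each peptide's frequency after selection divided by its frequency in the unselected input library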;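 further: frequency after pTyr selection over input frequency; kinase dosed for 20-30% of maximal phosphorylation in three min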
- Assay Info: phosphorylation enrichment, bacterial display (enrichment ratio); higher = better substrate or ligand; peptides without Tyr show the background
Decide by phosphorylation enrichment: equal to or exceeding 1 means Fulfilled, less means Not fulfilled.

// known answers, use as guide
SEVVPYEPPEV [TP53_Y220_V216E]	Fulfilled
ISIFFYAKGQP [MPZ_Y82_H81Y_YF]	Fulfilled
PVADPYDQSFE [MAPK14_Y323]	Fulfilled
VRFMAYTDETC [F8_Y450_F455C]	Fulfilled
QADIIYVNTQL [MERTK_Y872_V870I]	Fulfilled

[ask] Quick check, phosphorylation enrichment >= 1? KRTFEYEAEKN [DENND2B_Y396_D399E]
[reply] Not fulfilled

[ask] # check: phosphorylation enrichment of CTLLPYYSARV [DGKE_Y269] is greater than or equal to 1
[reply] Fulfilled

[ask] Form field: phosphorylation enrichment at least 1? Entry: ETLLFYGCRRS [POR_Y564_YF]
[reply] Not fulfilled

[ask] hey, is phosphorylation enrichment for this one >= 1? ARIVDYNIIGW [MYH7_Y588_G584R]
[reply] Not fulfilled

[ask] Is it the case that VISNAYVDLAP [HSD17B4_Y602] has phosphorylation enrichment reaching or exceeding 1?
[reply] Not fulfilled
